self-splicing fitness (ln) by entry:
assay: self-splicing fitness, log relative to wild type (ln ratio); higher = more splicing; Tetrahymena group I intron in knt gene, E. coli kanamycin selection, DiMSum; sequences stand for … in CUCUCU…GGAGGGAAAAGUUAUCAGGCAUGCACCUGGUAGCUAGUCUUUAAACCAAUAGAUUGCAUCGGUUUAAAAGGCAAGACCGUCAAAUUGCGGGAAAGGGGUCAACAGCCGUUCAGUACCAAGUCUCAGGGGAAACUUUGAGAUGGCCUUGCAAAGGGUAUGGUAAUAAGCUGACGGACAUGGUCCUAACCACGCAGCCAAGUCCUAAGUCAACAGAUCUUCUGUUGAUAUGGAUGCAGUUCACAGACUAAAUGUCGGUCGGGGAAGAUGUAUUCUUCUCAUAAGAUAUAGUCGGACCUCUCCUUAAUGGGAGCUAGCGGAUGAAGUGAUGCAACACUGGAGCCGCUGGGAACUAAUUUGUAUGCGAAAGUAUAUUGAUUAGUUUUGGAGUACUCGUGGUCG; details: 37 °C;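 note: selection with 25 µg/mL kanamycin versus none on LB agar overnight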
Recorded endpoint: self-splicing fitness (ln)

| Biopolymer sequence | Recorded endpoint | Reported result |
| --- | --- | --- |
| UGUCAGCAAUAUUACGUAGU | self-splicing fitness (ln) | -0.865 |
| GCUGAGCAAUAUUACGUAUG | self-splicing fitness (ln) | -2.61 |
| CCACAGCAAUAUUACGGUUC | self-splicing fitness (ln) | -2.27 |
| UGAGAGCAAUAUUACGACAA | self-splicing fitness (ln) | -1.99 |
| UAGUAGCAAUAUUACGGAUC | self-splicing fitness (ln) | -0.854 |
| AUGAAGCAAUAUUACGAAAU | self-splicing fitness (ln) | -0.46 |
